target: Wee1A kinase (CDK1 Tyr15 phosphorylation in ACHN renal cell carcinoma cells) (Homo sapiens); construct: pCDK1 Tyr15 immunofluorescence read-out; assay: High-content imaging of pCdk1 Y15, Wee1A kinase target engagement in ACHN cells; format: cell-based; details: 4 h treatment, nuclear positivity for pCdk1 Y15 vs DMSO control, read-out: CDK1 Tyr15 Phosphorylation EC50
Assignment: determine reported EC50 for the given compounds.

Example compounds with recorded EC50:
• C=CCn1c(=O)c2cnc(Nc3ccc4c(cnn4C)c3)nc2n1-c1cccc(OC2CCN(CCC)CC2)n1 = < 100 nM
• C=CCn1c(=O)c2cnc(Nc3ccc(OCC(F)(F)F)cc3)nc2n1-c1cccc(NC2CCN(C)CC2)n1 = 100 to 500 nM
• C=CCn1c(=O)c2cnc(Nc3ccc(OC(F)(F)F)c(C)c3)nc2n1-c1cccc(NC2CCNCC2)n1 = 100 to 500 nM

Now let's try a different one.
[Q] Input `C=CCn1c(=O)c2cnc(Nc3ccc4c(cnn4C)c3)nc2n1-c1cccc(O[C@@H]2CCCN(C)C2)n1` , output reported EC50.
[A] < 100 nM

* * *

target: Wee1A kinase (CDK1 Tyr15 phosphorylation in ACHN renal cell carcinoma cells) (Homo sapiens, UniProt P30291); construct: pCDK1 Tyr15 immunofluorescence read-out; test: High-content imaging of pCdk1 Y15, Wee1A kinase target engagement in ACHN cells; type: cell-based; conditions: 4 h treatment, nuclear positivity for pCdk1 Y15 vs DMSO control, read-out: CDK1 Tyr15 Phosphorylation EC50
Sequence (P30291 whole entry): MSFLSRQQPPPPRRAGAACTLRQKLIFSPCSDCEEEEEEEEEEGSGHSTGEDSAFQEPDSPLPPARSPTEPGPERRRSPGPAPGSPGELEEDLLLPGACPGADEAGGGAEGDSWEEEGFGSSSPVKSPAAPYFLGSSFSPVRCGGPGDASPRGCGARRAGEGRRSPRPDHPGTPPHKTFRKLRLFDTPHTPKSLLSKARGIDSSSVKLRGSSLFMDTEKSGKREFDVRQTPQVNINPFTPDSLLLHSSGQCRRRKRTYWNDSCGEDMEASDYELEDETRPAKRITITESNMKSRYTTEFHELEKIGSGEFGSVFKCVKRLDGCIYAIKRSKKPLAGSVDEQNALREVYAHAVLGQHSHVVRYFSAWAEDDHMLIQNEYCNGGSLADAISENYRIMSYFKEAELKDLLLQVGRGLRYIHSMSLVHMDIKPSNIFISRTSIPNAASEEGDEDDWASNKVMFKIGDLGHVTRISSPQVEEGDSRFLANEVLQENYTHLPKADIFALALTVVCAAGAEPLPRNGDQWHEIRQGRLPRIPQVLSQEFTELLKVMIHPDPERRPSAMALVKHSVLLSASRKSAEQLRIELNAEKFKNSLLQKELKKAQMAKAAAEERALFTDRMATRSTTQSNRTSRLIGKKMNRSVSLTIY
pEC50: −log10 of the molar value.
property: pEC50

Example entries and their recorded answers appear below.
* C=CCn1c(=O)c2cnc(Nc3cccnc3)nc2n1-c1cccc(OC2CCNCC2)n1 | < 6.00
* C=CCn1c(=O)c2cnc(Nc3ccc4nn(C)cc4c3)nc2n1-c1cccc(OC2CCNCC2)n1 | 6.30 to 7.00

Turning now to a further record.
[Q] Assign pEC50 to the following record: `C=CCn1c(=O)c2cnc(Nc3ccc4ncnn4c3)nc2n1-c1cccc(OC2CCNCC2)n1`
[A] < 6.00

* * *

test system: DAOY cells; assay: Cell Titer Glo viability assay, DAOY cells; type: cell-based; conditions: Homo sapiens, 144 h, absolute EC50
Exercise: for every item that follows, state its recorded EC50.

Check out these entries, answers already filled in.
• C=CCn1c(=O)c2cnc(Nc3ccc(OCCF)cc3)nc2n1-c1cccc(OC2CCN(C)CC2)n1 = ≤ 100 nM
• C=CCn1c(=O)c2cnc(Nc3ccc4c(c3)ncn4C)nc2n1-c1cccc(OC2CCN(C)CC2)n1 = ≤ 100 nM
• C=CCn1c(=O)c2cnc(Nc3ccc4c(cnn4C(C)C)c3)nc2n1-c1cccc(OC2CCN(C)CC2)n1 = ≤ 100 nM

[Q] Read off the recorded EC50 for `C=CCn1c(=O)c2cnc(Nc3ccc4c(cnn4C)c3)nc2n1-c1cccc(OC2CCNCC2)n1`
[A] 100 to 500 nM

* * *

molecular target: Myt1 kinase (recombinant PMYT-1) (Homo sapiens); construct: full length PMYT-1 was expressed by baculovirus in insect cells; purchased Invitrogen A30984; host or cells: insect cells (baculovirus); assay: Myt1 kinase binding assay (LanthaScreen Eu Kinase Binding Assay); details: 3 nM tracer 178, 2.5 nM PMYT-1, 1 nM Eu-labeled antibody; read-out: Myt1 kinase Binding IC50
Sequence (Q99640 whole entry): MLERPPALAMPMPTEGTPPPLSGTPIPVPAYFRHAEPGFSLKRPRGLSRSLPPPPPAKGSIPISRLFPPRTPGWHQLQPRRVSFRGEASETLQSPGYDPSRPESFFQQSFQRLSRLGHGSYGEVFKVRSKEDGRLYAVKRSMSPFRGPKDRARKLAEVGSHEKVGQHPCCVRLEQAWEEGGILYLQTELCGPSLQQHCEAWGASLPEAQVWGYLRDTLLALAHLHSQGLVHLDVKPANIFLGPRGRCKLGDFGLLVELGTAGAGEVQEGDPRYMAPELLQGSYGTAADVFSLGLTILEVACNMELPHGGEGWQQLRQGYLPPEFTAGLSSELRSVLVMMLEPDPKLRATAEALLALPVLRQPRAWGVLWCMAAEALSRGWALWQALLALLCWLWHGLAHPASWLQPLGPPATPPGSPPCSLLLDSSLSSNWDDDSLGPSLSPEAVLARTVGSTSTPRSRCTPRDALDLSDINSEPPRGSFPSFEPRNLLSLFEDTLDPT
property: IC50

A selection of reference data follows.
• C=CCn1c(=O)c2cnc(Nc3cc(-c4ccccc4)ns3)nc2n1-c1cccc(NC2CCN(C)CC2)n1 = 20 to 100 nM
• C=CCn1c(=O)c2cnc(Nc3cc(C)cc(OC(F)(F)F)c3)nc2n1-c1cccc(NC2CCNCC2)n1 = 100 to 500 nM
• CCn1c(=O)c2cnc(Nc3ccc(-c4ccccc4)cc3)nc2n1-c1cccc(OC2CCN(C)CC2)n1 = < 20 nM
• C=CCn1c(=O)c2cnc(Nc3ccc4scnc4c3)nc2n1-c1cccc(OC2CCNCC2)n1 = < 20 nM

Please give IC50, item by item, for the list that follows.
1. C=CCn1c(=O)c2cnc(Nc3ccc4oc(C)nc4c3)nc2n1-c1cccc(OC2CCNCC2)n1
2. C=CCn1c(=O)c2cnc(Nc3ccc(F)cc3)nc2n1-c1cccc(OC2CCN(C)CC2)n1
3. CCn1c(=O)c2cnc(Nc3cccc(-c4cncnc4)c3)nc2n1-c1cccc(OC2CCNCC2)n1
4. CCn1c(=O)c2cnc(Nc3ccc4c(c3)ncn4C)nc2n1-c1cccc(OC2CCNCC2)n1

[A]
["< 20 nM", "20 to 100 nM", "100 to 500 nM", "20 to 100 nM"]

Please look at the items below and tell me IC50 for each one, in order.
1. C=CCn1c(=O)c2cnc(Nc3ccc(OCC(F)(F)F)c(C)c3)nc2n1-c1cccc(NC2CCNCC2)n1
2. C=CCn1c(=O)c2cnc(Nc3ccc4c(cnn4CCC)c3)nc2n1-c1cccc(OC2CCNCC2)n1
3. CCn1c(=O)c2cnc(Nc3cccc(C)c3)nc2n1-c1cccc(OC2CCNCC2)n1
4. C=CCn1c(=O)c2cnc(Nc3ccc4ncnn4c3)nc2n1-c1cccc(OC2CCNCC2)n1

[A]
1. 100 to 500 nM
2. < 20 nM
3. 100 to 500 nM
4. 20 to 100 nM
